- subject_of_test: AURKB (human)
- test_name: Free Choice Kinase Assay Projects, Flashplate
- particulars: compound 10.0 µM; ATP 10 µM
Mark True for reported residual activity of 70% or greater; mark False for anything smaller.

| molecule | assigned_label |
| --- | --- |
| On1c(/C=C/c2ccccc2)nc(-c2ccncc2)c1-c1ccc(F)cc1 | False |
| Fc1ccc(-c2[nH]c(SCc3ccccc3)nc2-c2ccncc2)cc1 | True |
| CSc1nc(-c2ccnc(NC(C)=O)c2)c(-c2ccc(F)cc2)n1C | True |
| On1c(CCc2ccccc2)nc(-c2ccncc2)c1-c1ccc(F)cc1 | False |
| CSc1nc(-c2ccnc(NC(=O)C3CC3)c2)c(-c2ccc(F)cc2)n1C | False |
| N#CCSc1nc(-c2ccncc2)c(-c2ccc(F)cc2)[nH]1 | False |
| CSc1nc(-c2ccnc(F)c2)c(-c2ccc(F)cc2)[nH]1 | True |
| Fc1ccc(-c2[nH]c(SCCCc3ccccc3)nc2-c2ccncc2)cc1 | True |
| Fc1ccc(-c2[nH]c(/C=C/c3ccccc3)nc2-c2ccncc2)cc1 | False |
| Oc1cccc(CSc2nc(-c3ccncc3)c(-c3ccc(F)cc3)[nH]2)c1 | False |
| CSc1ccccc1CSc1nc(-c2ccncc2)c(-c2ccc(F)cc2)[nH]1 | True |
| CSc1nc(-c2ccnc(N(C(=O)C3CC3)C(=O)C3CC3)c2)c(-c2ccc(F)cc2)n1C | False |
| CC(Nc1cc(-c2nc(SCc3ccccc3)[nH]c2-c2ccc(F)cc2)ccn1)c1ccccc1 (stereo not given) | False |
| Fc1ccc(-c2[nH]c(SCC3CCCCC3)nc2-c2ccncc2)cc1 | True |
| Oc1ccccc1CSc1nc(-c2ccncc2)c(-c2ccc(F)cc2)[nH]1 | True |
| Fc1ccc(-c2[nH]c(SCc3ccccc3)nc2-c2ccnc(Cl)c2)cc1 | False |
| Fc1ccc(-c2[nH]c(SCc3ccccc3)nc2-c2ccnc(F)c2)cc1 | True |
| CSc1nc(-c2ccnc(NC(=O)C3CCCC3)c2)c(-c2ccc(F)cc2)n1C | True |
| Fc1ccc(-c2[nH]c(SCCc3ccccc3)nc2-c2ccncc2)cc1 | True |
| Oc1ccc(CSc2nc(-c3ccncc3)c(-c3ccc(F)cc3)[nH]2)cc1 | True |
| COc1ccc(C(=O)Nc2cc(-c3nc(SC)n(C)c3-c3ccc(F)cc3)ccn2)cc1 | True |
| Fc1ccc(-c2[nH]c(SCc3cccc4ccccc34)nc2-c2ccncc2)cc1 | False |
| Fc1ccc(-c2[nH]c(CCc3ccccc3)nc2-c2ccncc2)cc1 | False |
| CSc1ccc(CSc2nc(-c3ccncc3)c(-c3ccc(Br)cc3)[nH]2)cc1 | False |

====

- subject_of_test: CDK2 CCNA2 (human) (UniProt P24941+P20248)
- Sequence (P20248 whole entry, looked up, other chains not shown): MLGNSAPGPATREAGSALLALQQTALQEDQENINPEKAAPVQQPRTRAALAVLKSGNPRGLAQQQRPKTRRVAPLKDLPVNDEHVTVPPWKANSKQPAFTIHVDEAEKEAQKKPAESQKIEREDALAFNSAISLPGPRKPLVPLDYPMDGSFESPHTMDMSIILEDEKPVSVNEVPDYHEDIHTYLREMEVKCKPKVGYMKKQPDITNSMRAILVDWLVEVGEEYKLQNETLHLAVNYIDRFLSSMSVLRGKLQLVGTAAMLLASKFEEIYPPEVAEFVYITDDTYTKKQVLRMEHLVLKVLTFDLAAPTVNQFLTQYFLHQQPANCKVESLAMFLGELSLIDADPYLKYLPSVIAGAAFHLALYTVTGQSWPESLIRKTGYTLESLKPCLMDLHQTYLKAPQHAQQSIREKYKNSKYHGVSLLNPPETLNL
- test_name: Free Choice Kinase Assay Projects, Flashplate
- particulars: compound 10.0 µM; ATP 0.3 µM
Entries and their measured residual activity follow.
reported_metric: residual activity (%)

| structure_string | reported_metric | obs_value |
| --- | --- | --- |
| Fc1ccc(-c2[nH]c(SCc3cccc4ccccc34)nc2-c2ccncc2)cc1 | residual activity | 20 |
| Oc1ccc(CSc2nc(-c3ccncc3)c(-c3ccc(F)cc3)[nH]2)cc1 | residual activity | 117 |
| Fc1ccc(-c2[nH]c(/C=C/c3ccccc3)nc2-c2ccncc2)cc1 | residual activity | 32 |
| CSc1nc(-c2ccnc(NC(=O)C3CCCC3)c2)c(-c2ccc(F)cc2)n1C | residual activity | 88 |
| On1c(CCc2ccccc2)nc(-c2ccncc2)c1-c1ccc(F)cc1 | residual activity | 54 |
| COc1ccc(C(=O)Nc2cc(-c3nc(SC)n(C)c3-c3ccc(F)cc3)ccn2)cc1 | residual activity | 37 |
| CSc1nc(-c2ccnc(N(C(=O)C3CC3)C(=O)C3CC3)c2)c(-c2ccc(F)cc2)n1C | residual activity | 211 |
| Fc1ccc(-c2[nH]c(SCCc3ccccc3)nc2-c2ccncc2)cc1 | residual activity | 72 |
| CSc1ccc(CSc2nc(-c3ccncc3)c(-c3ccc(F)cc3)[nH]2)cc1 | residual activity | 42 |
| CSc1nc(-c2ccnc(NC(=O)C3CC3)c2)c(-c2ccc(F)cc2)n1C | residual activity | 234 |
